Listed here: items and their measured OD450.
target: T1, Cynomolgus/Rhesus macaque FOLR1 Protein, His Tag (ACRO, F01-C52H8) (cynomolgus, UniProt A0A2K5U044 25-233); experiment: ELISA, supernatant diluted 1x
T1 construct: also called cynomolgus FOLR1 protein; not shown: His tag
T1 sequence (A0A2K5U044 entry or part of it): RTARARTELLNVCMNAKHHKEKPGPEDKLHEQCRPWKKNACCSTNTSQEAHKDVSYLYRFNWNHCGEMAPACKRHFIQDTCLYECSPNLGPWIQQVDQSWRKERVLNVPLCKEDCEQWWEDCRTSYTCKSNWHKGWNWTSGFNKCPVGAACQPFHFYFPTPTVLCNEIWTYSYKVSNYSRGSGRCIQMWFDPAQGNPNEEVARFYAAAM
The reply should be a number, written without any unit.

Would you please look over these solved cases?
F112 (antibody, V domains shown, also called clone F112; anti-FOLR1 antibody F112) VH: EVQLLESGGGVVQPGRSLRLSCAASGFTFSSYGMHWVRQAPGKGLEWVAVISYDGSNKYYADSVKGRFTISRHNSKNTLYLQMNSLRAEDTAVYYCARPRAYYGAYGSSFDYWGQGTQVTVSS VL: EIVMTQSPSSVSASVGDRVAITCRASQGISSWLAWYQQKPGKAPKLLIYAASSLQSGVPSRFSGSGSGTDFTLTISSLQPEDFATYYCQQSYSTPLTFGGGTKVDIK: 1.26
F40 (antibody, V domains shown, also called clone F40; anti-FOLR1 antibody F40) VH: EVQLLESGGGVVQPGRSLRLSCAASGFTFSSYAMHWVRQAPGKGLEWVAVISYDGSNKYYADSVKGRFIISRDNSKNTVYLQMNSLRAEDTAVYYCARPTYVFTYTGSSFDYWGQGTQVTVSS VL: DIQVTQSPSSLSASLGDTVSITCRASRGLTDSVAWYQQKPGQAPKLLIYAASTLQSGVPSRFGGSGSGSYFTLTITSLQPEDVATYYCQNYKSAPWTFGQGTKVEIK: 1.35
F123 (antibody, V domains shown, also called clone F123; anti-FOLR1 antibody F123) VH: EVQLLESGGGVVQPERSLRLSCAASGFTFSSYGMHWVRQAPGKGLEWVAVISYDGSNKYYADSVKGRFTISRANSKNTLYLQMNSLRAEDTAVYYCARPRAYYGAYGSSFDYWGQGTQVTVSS VL: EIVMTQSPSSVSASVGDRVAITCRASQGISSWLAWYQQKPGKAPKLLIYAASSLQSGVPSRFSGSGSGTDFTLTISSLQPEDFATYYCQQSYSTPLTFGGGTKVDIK: 1.36
F48 (antibody, V domains shown, also called clone F48; anti-FOLR1 antibody F48) VH: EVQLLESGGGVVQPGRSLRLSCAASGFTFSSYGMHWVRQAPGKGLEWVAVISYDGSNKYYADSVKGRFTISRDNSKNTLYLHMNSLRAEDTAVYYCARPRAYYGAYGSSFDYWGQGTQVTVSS VL: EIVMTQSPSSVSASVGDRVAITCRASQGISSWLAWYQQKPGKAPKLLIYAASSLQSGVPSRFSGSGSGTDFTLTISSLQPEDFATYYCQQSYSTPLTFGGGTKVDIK: 1.15

Attention now shifts to the item below.
OD450 lookup needed for F100 (antibody, V domains shown, also called clone F100; anti-FOLR1 antibody F100) VH: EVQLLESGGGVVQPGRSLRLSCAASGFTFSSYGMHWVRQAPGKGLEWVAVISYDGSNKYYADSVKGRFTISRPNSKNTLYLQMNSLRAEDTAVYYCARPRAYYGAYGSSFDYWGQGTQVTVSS VL: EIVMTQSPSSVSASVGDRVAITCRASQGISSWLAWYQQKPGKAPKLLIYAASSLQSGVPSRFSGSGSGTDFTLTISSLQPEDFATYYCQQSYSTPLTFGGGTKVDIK , thanks. 1.16

Numbers sourced from patent US20240207429A1.
